Assay: Column retention of amino acid on WS A201
Type: physicochemical
Details: 100 ml solution on 89 ml WS A201 column at 1.5 ml/min, displaced with 100 ml deionized water
READOUT_KIND: amount passed through the column (mg)
API: value field is a number in mg; no unit string.

**Query** // lookup amount passed through the column for C[C@H](N)C(=O)O [modified alanine, Protonated alanine]
**Result** 45.1

**Query** // lookup amount passed through the column for CC(C)C[C@H](N)C(=O)O [unmodified leucine, leucine, reference compound]
**Result** 1271

**Query** // lookup amount passed through the column for CC(CNC(=N)N)C[C@H](N)C(=O)O (some centres unmarked)
**Result** 66

**Query** // lookup amount passed through the column for C[C@H](N)C(=O)O [unmodified alanine, alanine, reference compound]
**Result** 853.6

**Query** // lookup amount passed through the column for N[C@@H](CCC(=O)O)C(=O)O [unmodified glutamic acid, glutamic acid, reference compound]
**Result** 1392
